Organism: Rattus norvegicus
Test: Open TG-GATES - Regimen: Daily Repeat
Assay type: toxicity, organism-based, Sprague-Dawley
Set-up: regimen Daily Repeat, gender Male, age 6 weeks
Settings: in vivo, po, 100 mg/kg, 72 h, tissue Blood, route gavage, dose level Low, time 3 day
# maps each entry to its Ret
endpoint: Ret (%)

* CCN1CCCC1CNC(=O)c1cc(S(N)(=O)=O)ccc1OC (centres undefined) [SULPIRIDE] | 6.5
* CC(C)(S)[C@@H](N)C(=O)O | 7.4
* O=C(O)c1cccnc1 | 6.9
* O=C(N[C@H](CO)[C@H](O)c1ccc([N+](=O)[O-])cc1)C(Cl)Cl | 5.4

====

Species: Rattus norvegicus
Experiment: Open TG-GATES - Regimen: Daily Repeat
Format: toxicity, organism-based, Sprague-Dawley
Design: regimen Daily Repeat, gender Male, age 6 weeks
Conditions: in vivo, po, 0 mg/kg, […], tissue Blood, route gavage, dose level Control, time 14 day
endpoint: Plat (x10_4/uL)

* CCC(C)(C)C(=O)O[C@H]1C[C@@H](C)C=C2C=C[C@H](C)[C@H](CC[C@@H]3C[C@@H](O)CC(=O)O3)[C@H]21 [SIMVASTATIN] | 123.4
* C[C@](N)(Cc1ccc(O)c(O)c1)C(=O)O [METHYLDOPA] | 102.2
* O=C(N[C@H](CO)[C@H](O)c1ccc([N+](=O)[O-])cc1)C(Cl)Cl [CHLORAMPHENICOL] | 122.4
* C#C[C@]1(O)CC[C@H]2[C@@H]3CCc4cc(O)ccc4[C@H]3CC[C@@]21C [ETHINYL ESTRADIOL] | 120
* C[C@]12CCC(=O)C=C1CC[C@@H]1[C@@H]2CC[C@@]2(C)[C@H]1CC[C@]2(C)O [METHYLTESTOSTERONE] | 112.1
* CC(=N)S [THIOACETAMIDE] | 101.4
* O=C(O)c1cccnc1 [NIACIN] | 115.7
* CC(C)C(=O)Nc1ccc([N+](=O)[O-])c(C(F)(F)F)c1 [FLUTAMIDE] | 128
* CCc1oc2ccccc2c1C(=O)c1cc(I)c(O)c(I)c1 [BENZIODARONE] | 115.3
* Nc1nc(N)c2nc(-c3ccccc3)c(N)nc2n1 | 132.7

====

Species: Rattus norvegicus
Test: Open TG-GATES - Regimen: Daily Repeat
Format: toxicity, organism-based, Sprague-Dawley
Design: regimen Daily Repeat, gender Male, age 6 weeks
Conditions: in vivo, po, 300 mg/kg, 72 h, tissue Blood, route gavage, dose level Middle, time 3 day
Recorded Fbg values for a group of molecules are listed next.
endpoint: Fbg (mg/dL)

* CC(C)(S)[C@@H](N)C(=O)O [PENICILLAMINE] | 301.4
* O=C(O)c1cccnc1 [NIACIN] | 314.2
* CCN1CCCC1CNC(=O)c1cc(S(N)(=O)=O)ccc1OC (centres undefined) [SULPIRIDE] | 278.2
* O=C(N[C@H](CO)[C@H](O)c1ccc([N+](=O)[O-])cc1)C(Cl)Cl [CHLORAMPHENICOL] | 294.6

====

Species on record: Rattus norvegicus
Experiment: Open TG-GATES - Regimen: Daily Repeat
Format: toxicity, organism-based, Sprague-Dawley
Set-up: regimen Daily Repeat, gender Male, age 6 weeks
Conditions: in vivo, po, 300 mg/kg, 72 h, tissue Blood, route gavage, dose level Middle, time 3 day
endpoint: Plat (x10_4/uL)

- CCN1CCCC1CNC(=O)c1cc(S(N)(=O)=O)ccc1OC (centres undefined) [SULPIRIDE]: 118.8
- O=C(O)c1cccnc1 [NIACIN]: 132.1
- O=C(N[C@H](CO)[C@H](O)c1ccc([N+](=O)[O-])cc1)C(Cl)Cl [CHLORAMPHENICOL]: 128.6
- CC(C)(S)[C@@H](N)C(=O)O [PENICILLAMINE]: 114.9

====

Organism: Rattus norvegicus
Test: Open TG-GATES - Regimen: Daily Repeat
Type: toxicity, organism-based, Sprague-Dawley
Parameters: regimen Daily Repeat, gender Male, age 6 weeks
Settings: in vivo, po, 100 mg/kg, […], tissue Plasma, route gavage, dose level Low, time 14 day
Items are presented alongside their recorded BUN.
endpoint: BUN

* CCN1CCCC1CNC(=O)c1cc(S(N)(=O)=O)ccc1OC (centres undefined) [SULPIRIDE] | 15.8 mg/dL
* O=C(O)c1cccnc1 | 17 mg/dL
* CC(C)(S)[C@@H](N)C(=O)O | 15 mg/dL
* O=C(N[C@H](CO)[C@H](O)c1ccc([N+](=O)[O-])cc1)C(Cl)Cl | 16 mg/dL

====

Species: Rattus norvegicus
Experiment: Open TG-GATES - Regimen: Daily Repeat
Format: toxicity, organism-based, Sprague-Dawley
Design: regimen Daily Repeat, gender Male, age 6 weeks
Conditions: in vivo, po, 100 mg/kg, […], tissue Plasma, route gavage, dose level Low, time 14 day
Ca values, listed per item
endpoint: Ca

- O=C(O)c1cccnc1: 10.5 mg/dL
- CCN1CCCC1CNC(=O)c1cc(S(N)(=O)=O)ccc1OC (centres undefined) [SULPIRIDE]: 11 mg/dL
- O=C(N[C@H](CO)[C@H](O)c1ccc([N+](=O)[O-])cc1)C(Cl)Cl: 11.2 mg/dL
- CC(C)(S)[C@@H](N)C(=O)O: 10.9 mg/dL

====

Species: Rattus norvegicus
Experiment: Open TG-GATES - Regimen: Daily Repeat
Type: toxicity, organism-based, Sprague-Dawley
Parameters: regimen Daily Repeat, gender Male, age 6 weeks
Details: in vivo, po, 100 mg/kg, […], tissue Blood, route gavage, dose level Low, time 28 day
Reported WBC values for a set of compounds
endpoint: WBC (x10_2/uL)

• O=C(O)c1cccnc1 [NIACIN] = 117.4
• CCN1CCCC1CNC(=O)c1cc(S(N)(=O)=O)ccc1OC (centres undefined) [SULPIRIDE] = 95.5
• O=C(N[C@H](CO)[C@H](O)c1ccc([N+](=O)[O-])cc1)C(Cl)Cl [CHLORAMPHENICOL] = 79.5
• CC(C)(S)[C@@H](N)C(=O)O [PENICILLAMINE] = 93.4

====

Organism: Rattus norvegicus
Experiment: Open TG-GATES - Regimen: Single
Assay type: toxicity, organism-based, Sprague-Dawley
Set-up: regimen Single, gender Male, age 6 weeks
Details: in vivo, po, 0 mg/kg, 3 h, tissue Blood, route gavage, dose level Control
endpoint: MCH (pg)

• CC(=O)Oc1cc(C(C)C)c(OCCN(C)C)cc1C = 21.2
• Oc1ncnc2[nH]ncc12 = 21.9
• CCSCC[C@H](N)C(=O)O = 21.1
• Nc1nc(N)c2nc(-c3ccccc3)c(N)nc2n1 = 21.4
• CC(=N)S [THIOACETAMIDE] = 21.7
• O=C(N[C@H](CO)[C@H](O)c1ccc([N+](=O)[O-])cc1)C(Cl)Cl = 21.8
• CCN1CCCC1CNC(=O)c1cc(S(N)(=O)=O)ccc1OC (stereo unspecified) [SULPIRIDE] = 20.9
• CC(C)C(=O)Nc1ccc([N+](=O)[O-])c(C(F)(F)F)c1 [FLUTAMIDE] = 22.2
• C[C@](N)(Cc1ccc(O)c(O)c1)C(=O)O = 22.2
• CCc1oc2ccccc2c1C(=O)c1cc(I)c(O)c(I)c1 = 22
• C[C@]12CCC(=O)C=C1CC[C@@H]1[C@@H]2CC[C@@]2(C)[C@H]1CC[C@]2(C)O = 21.5

====

Species on record: Rattus norvegicus
Assay: Open TG-GATES - Regimen: Daily Repeat
Type: toxicity, organism-based, Sprague-Dawley
Design: regimen Daily Repeat, gender Male, age 6 weeks
Details: in vivo, po, 300 mg/kg, […], tissue Plasma, route gavage, dose level Middle, time 14 day
endpoint: Ca (mg/dL)

• O=C(O)c1cccnc1 = 10.7
• CCN1CCCC1CNC(=O)c1cc(S(N)(=O)=O)ccc1OC (centres undefined) [SULPIRIDE] = 11.1
• CC(C)(S)[C@@H](N)C(=O)O = 10.9
• O=C(N[C@H](CO)[C@H](O)c1ccc([N+](=O)[O-])cc1)C(Cl)Cl = 11.3

====

Organism: Rattus norvegicus
Assay: Open TG-GATES - Regimen: Daily Repeat
Type: toxicity, organism-based, Sprague-Dawley
Set-up: regimen Daily Repeat, gender Male, age 6 weeks
Details: in vivo, po, 0 mg/kg, 72 h, tissue Blood, route gavage, dose level Control, time 3 day
endpoint: MCH (pg)

* C#C[C@]1(O)CC[C@H]2[C@@H]3CCc4cc(O)ccc4[C@H]3CC[C@@]21C | 21.4
* CC(=O)Oc1cc(C(C)C)c(OCCN(C)C)cc1C | 20.9
* CCSCC[C@H](N)C(=O)O | 21
* CN1C(=O)OC(C)(C)C1=O | 21.4
* C[C@]12CCC(=O)C=C1CC[C@@H]1[C@@H]2CC[C@@]2(C)[C@H]1CC[C@]2(C)O | 21.6
* CCc1oc2ccccc2c1C(=O)c1cc(I)c(O)c(I)c1 | 21.4
* O=C(N[C@H](CO)[C@H](O)c1ccc([N+](=O)[O-])cc1)C(Cl)Cl | 21.5
* CC(C)(S)[C@@H](N)C(=O)O | 21.1
* CCN1CCCC1CNC(=O)c1cc(S(N)(=O)=O)ccc1OC (centres undefined) [SULPIRIDE] | 20.7
* C[C@](N)(Cc1ccc(O)c(O)c1)C(=O)O | 21.5
* Oc1ncnc2[nH]ncc12 | 22.3
* CC(=N)S [THIOACETAMIDE] | 21.2
* Nc1nc(N)c2nc(-c3ccccc3)c(N)nc2n1 | 20.8
* CC(C)C(=O)Nc1ccc([N+](=O)[O-])c(C(F)(F)F)c1 [FLUTAMIDE] | 21.5
